For each of the molecules below, state its Cross reactivity (%) E antibody I.
System: anti-etofenprox antibody I (E-antibody I)
assay: Indirect competitive ELISA employing E-antibody I
Type: binding, rabbit
conditionDescription: inhibition rate relative to etofenprox at its IC50 concentration (=100%); antibody 1/40,000, 50% methanol
The reply should be a number in %, with the unit left off.

Please tell me the measured Cross reactivity (%) E antibody I for CC(C)=CC1C(C(=O)OCc2coc(Cc3ccccc3)c2)C1(C)C (centres unmarked) [Resmethrin, resmethrin] ; system: anti-etofenprox antibody I (E-antibody I).
74

Give anti-etofenprox antibody I (E-antibody I) Cross reactivity (%) E antibody I for the following molecule: CCOc1ccc(C(C)(C)CCCc2cccc(Oc3ccccc3)c2)cc1 [MTI-790]
23

Write down measured Cross reactivity (%) E antibody I (anti-etofenprox antibody I (E-antibody I)) for this molecule. CCOc1ccc([Si](C)(C)OCc2cccc(Oc3ccccc3)c2)cc1 [SSI-116]
70

Quote anti-etofenprox antibody I (E-antibody I) Cross reactivity (%) E antibody I for entry CCOc1ccc([Si](C)(C)CCCc2ccc(F)c(Oc3ccccc3)c2)cc1 [Silafluofen, silafluofen] .
57

State measured Cross reactivity (%) E antibody I of the molecule CC1(C)C(C(=O)OC(C#N)c2cccc(Oc3ccccc3)c2)C1(C)C (centres unmarked) [Fenpropathrin, fenpropathrin] with anti-etofenprox antibody I (E-antibody I).
136

GET Cross reactivity (%) E antibody I where system = anti-etofenprox antibody I (E-antibody I) and item = CC1(C)[C@H](C(=O)O[C@H](C#N)c2cccc(Oc3ccccc3)c2)[C@@H]1C(Br)C(Br)(Br)Br (some centres unmarked) [Tralomethrin, tralomethrin]
116

Enter measured Cross reactivity (%) E antibody I, system anti-etofenprox antibody I (E-antibody I), for the molecule shown: CCOc1ccc(C(C)(C)CCCc2ccc(F)c(Oc3ccccc3)c2)cc1 [MTI-800]
54

Please look at C=CCC1=C(C)C(OC(=O)C2C(C=C(C)C)C2(C)C)CC1=O (centres unmarked) [Allethrin, allethrin] and tell me its recorded Cross reactivity (%) E antibody I on anti-etofenprox antibody I (E-antibody I).
46

Please report the measured Cross reactivity (%) E antibody I for CC1(C)[C@H](C(=O)OCc2coc(Cc3ccccc3)c2)[C@@H]1/C=C1\CCSC1=O [Kadethrin, kadethrin] tested on anti-etofenprox antibody I (E-antibody I).
62

Write down measured Cross reactivity (%) E antibody I (anti-etofenprox antibody I (E-antibody I)) for this molecule. CC(C)C(C(=O)OC(C#N)c1cccc(Oc2ccccc2)c1)c1ccc(Cl)cc1 (centres unmarked) [Fenvarerate, fenvarerate]
47

Enter Cross reactivity (%) E antibody I (test system anti-etofenprox antibody I (E-antibody I)) for CC1(C)C(/C=C(\Cl)C(F)(F)F)C1C(=O)OC(C#N)c1cccc(Oc2ccccc2)c1 (centres unmarked) [Cyhalothrin, cyhalothrin]
92

Write down the reported Cross reactivity (%) E antibody I (system: anti-etofenprox antibody I (E-antibody I)) of CC(C)(COCc1cccc(Oc2ccccc2)c1)c1ccc(OC(F)(F)Br)cc1 [Halfenprox, halfenprox]
85

Report measured Cross reactivity (%) E antibody I on anti-etofenprox antibody I (E-antibody I); entry: CCOc1ccc(C2(C(=O)OC(C#N)c3cccc(Oc4ccccc4)c3)CC2(Cl)Cl)cc1 (centres unmarked) [Cycloprothrin, cycloprothrin]
103

Specify Cross reactivity (%) E antibody I for Cc1c(COC(=O)C2C(C=C(Cl)C(F)(F)F)C2(C)C)cccc1-c1ccccc1 (centres unmarked) [Biphenthrin, biphenthrin] , system anti-etofenprox antibody I (E-antibody I).
86

Supply Cross reactivity (%) E antibody I measured with anti-etofenprox antibody I (E-antibody I) for CC(C)[C@H](C(=O)OC(C#N)c1cccc(Oc2ccccc2)c1)c1ccc(OC(F)F)cc1 (some centres unmarked) [Flucythrinate, flucythrinate] .
126

Under anti-etofenprox antibody I (E-antibody I), report Cross reactivity (%) E antibody I for CC(C)[C@H](Nc1ccc(C(F)(F)F)cc1Cl)C(=O)OC(C#N)c1cccc(Oc2ccccc2)c1 (some centres unmarked) [Fluvalinate, fluvalinate]
70

Write down the reported Cross reactivity (%) E antibody I (system: anti-etofenprox antibody I (E-antibody I)) of CCOc1ccc(C(COCc2cccc(Oc3ccc(Cl)cc3)c2)C(F)(F)F)cc1 (centres unmarked) [Flufenprox]
108

* * *

Answer each item with its documented Cross reactivity (%) E antibody II.
Tested on: anti-etofenprox antibody II (E-antibody II)
assay: Indirect competitive ELISA employing E-antibody II
Assay type: binding, rabbit
conditionDescription: inhibition rate relative to etofenprox at its IC50 concentration (=100%); antibody 1/80,000, 20% methanol
Give the number; % is assumed, so skip it.

Given CC1(C)C(/C=C(\Cl)C(F)(F)F)C1C(=O)OC(C#N)c1cccc(Oc2ccccc2)c1 (centres unmarked) [Cyhalothrin, cyhalothrin] , report its Cross reactivity (%) E antibody II on anti-etofenprox antibody II (E-antibody II).
36

Recall the reported Cross reactivity (%) E antibody II of CCOc1ccc(C(C)(C)CCCc2cccc(Oc3ccccc3)c2)cc1 [MTI-790] when tested on anti-etofenprox antibody II (E-antibody II).
37

Jot down Cross reactivity (%) E antibody II (anti-etofenprox antibody II (E-antibody II)) of CC1(C)C(C(=O)OC(C#N)c2cccc(Oc3ccccc3)c2)C1(C)C (centres unmarked) [Fenpropathrin, fenpropathrin] .
48

Jot down Cross reactivity (%) E antibody II (anti-etofenprox antibody II (E-antibody II)) of CC(C)[C@H](Nc1ccc(C(F)(F)F)cc1Cl)C(=O)OC(C#N)c1cccc(Oc2ccccc2)c1 (some centres unmarked) [Fluvalinate, fluvalinate] .
23

Answer briefly: Cross reactivity (%) E antibody II recorded on anti-etofenprox antibody II (E-antibody II) for CCOc1ccc(C2(C(=O)OC(C#N)c3cccc(Oc4ccccc4)c3)CC2(Cl)Cl)cc1 (centres unmarked) [Cycloprothrin, cycloprothrin]
54

Name the recorded Cross reactivity (%) E antibody II of CC1(C)[C@H](C(=O)OCc2coc(Cc3ccccc3)c2)[C@@H]1/C=C1\CCSC1=O [Kadethrin, kadethrin] , assay system anti-etofenprox antibody II (E-antibody II).
164

Please report the measured Cross reactivity (%) E antibody II for C=CCC1=C(C)C(OC(=O)C2C(C=C(C)C)C2(C)C)CC1=O (centres unmarked) [Allethrin, allethrin] tested on anti-etofenprox antibody II (E-antibody II).
54

Output reported Cross reactivity (%) E antibody II of the compound CCOc1ccc([Si](C)(C)OCc2cccc(Oc3ccccc3)c2)cc1 [SSI-116] on anti-etofenprox antibody II (E-antibody II).
103

* * *

Kindly supply the reported Cross reactivity (%) E antibody II values for the records listed here.
Test system: anti-etofenprox antibody II (E-antibody II)
assay: Indirect competitive ELISA employing E-antibody II
Format: binding, rabbit
conditionDescription: inhibition rate relative to etofenprox at its IC50 concentration (=100%); antibody 1/80,000, 20% methanol
Be sure to follow the number with its unit.

Retrieve Cross reactivity (%) E antibody II measured for Cc1c(COC(=O)C2C(C=C(Cl)C(F)(F)F)C2(C)C)cccc1-c1ccccc1 (stereo not drawn) [Biphenthrin, biphenthrin] and print it.
81%

# return recorded Cross reactivity (%) E antibody II for entry CC(C)[C@H](C(=O)OC(C#N)c1cccc(Oc2ccccc2)c1)c1ccc(OC(F)F)cc1 (stereo partly drawn) [Flucythrinate, flucythrinate]
60%

Give the reported Cross reactivity (%) E antibody II for this molecule. CC1(C)[C@H](C(=O)O[C@H](C#N)c2cccc(Oc3ccccc3)c2)[C@@H]1C(Br)C(Br)(Br)Br (stereo partly drawn) [Tralomethrin, tralomethrin]
67%

Identify measured Cross reactivity (%) E antibody II associated with CCOc1ccc([Si](C)(C)CCCc2ccc(F)c(Oc3ccccc3)c2)cc1 [Silafluofen, silafluofen]
32%

Indicate the recorded Cross reactivity (%) E antibody II value for this molecule: CC(C)(COCc1cccc(Oc2ccccc2)c1)c1ccc(OC(F)(F)Br)cc1 [Halfenprox, halfenprox]
75%

Give reported Cross reactivity (%) E antibody II value for CC(C)C(C(=O)OC(C#N)c1cccc(Oc2ccccc2)c1)c1ccc(Cl)cc1 (stereo not drawn) [Fenvarerate, fenvarerate]
50%

Supply Cross reactivity (%) E antibody II value. Item: CCOc1ccc(C(COCc2cccc(Oc3ccc(Cl)cc3)c2)C(F)(F)F)cc1 (stereo not drawn) [Flufenprox]
74%

For CCOc1ccc(C(C)(C)CCCc2ccc(F)c(Oc3ccccc3)c2)cc1 [MTI-800] , write its Cross reactivity (%) E antibody II.
34%

State, in one line, measured Cross reactivity (%) E antibody II of CC(C)=CC1C(C(=O)OCc2coc(Cc3ccccc3)c2)C1(C)C (stereo not drawn) [Resmethrin, resmethrin]
85%

Hello, the source for this data is patent US5608104A, in case you need it.
